Attribution: paper PMC2758331

Parameter 'readout' = IC50; parameter 'system' = mDia1-FH2 (Mus musculus).
Sequence (O08808 748-1175): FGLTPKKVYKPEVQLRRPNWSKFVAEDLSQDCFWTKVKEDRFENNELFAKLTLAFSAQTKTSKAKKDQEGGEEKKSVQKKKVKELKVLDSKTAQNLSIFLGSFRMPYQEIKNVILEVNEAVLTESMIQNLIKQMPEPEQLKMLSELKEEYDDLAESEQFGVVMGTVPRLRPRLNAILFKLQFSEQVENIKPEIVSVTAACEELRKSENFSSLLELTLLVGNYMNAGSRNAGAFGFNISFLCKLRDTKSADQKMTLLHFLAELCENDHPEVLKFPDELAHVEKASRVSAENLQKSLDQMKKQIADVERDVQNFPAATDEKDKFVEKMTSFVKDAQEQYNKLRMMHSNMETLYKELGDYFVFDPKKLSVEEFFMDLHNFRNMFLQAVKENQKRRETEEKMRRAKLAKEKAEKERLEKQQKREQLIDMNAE

Structure As Smiles	Tested System	Unit Name	IC50
Nc1ccc(Br)cc1-c1nc2ccccc2[nH]c1=O	mDia1-FH2 (Mus musculus)	µM	2.1
O=S(=O)(O)c1cc(O)c2c(N=Nc3c(S(=O)(=O)O)cc4cc(S(=O)(=O)O)cc(O)c4c3O)cc(S(=O)(=O)O)cc2c1	mDia1-FH2 (Mus musculus)	µM	0.49
